system: U2OS; experiment: Multiplex assay against U2OS; assay type: toxicity, cell-based; conditions: human, 48 h, 10 µM, compound concentration 10 uM, replicate 1
property: Population Tubulin-Different-Phenotype (%)
Could you give me the number in %? Just the number is fine.

Recorded Population Tubulin-Different-Phenotype (%) (molecule COc1cc(OC2CCN(C(C)=O)CC2)ccc1C(=O)N1CCC(N2C(=O)OCc3ccccc32)CC1 ): 3

Recorded Population Tubulin-Different-Phenotype (%) (molecule CN(C)C/C=C/C(=O)Nc1ccc(C(=O)N2CCCC(Nc3ncc(Cl)c(-c4c[nH]c5ccccc45)n3)C2)cc1 (centres undefined) ): 38

The value of Population Tubulin-Different-Phenotype (%) measured for the molecule COc1ccc2c(c1OCc1ccccc1)C[C@@H](C(=O)O)N(C(=O)C(c1ccccc1)c1ccccc1)C2 [OLODANRIGAN] turned out to be 3

What the record says about Cc1cc(-c2ccc3c(c2)CC[C@H]3N2CC3(CCN(C(=O)Cc4cn5cc(C)sc5n4)CC3)C2)ncn1 [PF-5190457] : Population Tubulin-Different-Phenotype (%) is 3
